Assay: reversal of MRP1-mediated doxorubicin resistance, pilot screen, H69AR cells, doxorubicin co-treatment (AID 601)
Conditions: H69AR cells + 2 uM doxorubicin, CellTiter-Glo, 72 h; measured here: viability with 2 uM doxorubicin; at 10 µM; stronger effect = lower value
recorded metric: viability (%)
Give a bare numeral; the unit % is implied.

Query block: Entry under review: CCCc1cc(=O)[nH]c(/N=C(\N)Nc2ccccc2)n1 . Reported viability?
Result block: 96.3

Query block: Consider the compound shown here: COc1ccc(CC(=O)OCn2nnc3ccccc3c2=O)cc1 What is its recorded viability?
Result block: 101

Query block: Would you mind telling me what viability value was observed for Cc1ccc2nc(C3CCN(CC(=O)N4CCCCCC4)CC3)[nH]c2c1 ?
Result block: 107

Query block: I would be grateful if you could share the reported viability for C=C(C)COc1ccc(-c2nc(N)ncc2Oc2ccccc2OCC)c(O)c1 .
Result block: 51.6

Query block: Which viability is listed for COCc1nnc(NS(=O)(=O)c2ccc(Br)cc2)s1 ?
Result block: 95.8

Values from PubChem BioAssay
